B1: STX5 (parent)
chain: RSEFTLMAKRIGKDLSNTFAKLEK

Variants of: B1
Assay: protein stability index of a GFP-peptide fusion (GPS, HEK-293T) (PSI 1-6); higher = more stable;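 note: lentivirally expressed fusions sorted by FACS into six bins by GFP to DsRed ratio, PSI derived from sequencing read proportions per bin multiplied by bin number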
Conditions: c terminus: a fixed tail appended
Is protein stability index at least 3? Then Satisfied. If not, Not satisfied.

{"biosequence": "RQEFTLMAKRIGKDLSNTFAKLEK [S2Q]", "class": "Satisfied"}
{"biosequence": "RSEFTLMAKWIGKDLSNTFAKLEK [R10W]", "class": "Not satisfied"}
{"biosequence": "RSEFTLMAKRIGKDQSNTFAKLEK [L15Q]", "class": "Satisfied"}
{"biosequence": "RSEFTLMAKRIGKDLSNTFAKFEK [L22F]", "class": "Not satisfied"}
{"biosequence": "RSEFTLMAKRIGKDLSNTFAPLEK [K21P]", "class": "Not satisfied"}
{"biosequence": "RAEFTLMAKRIGKDLSNTFAKLEK [S2A]", "class": "Not satisfied"}
{"biosequence": "RSEFTLMAKRIGKDLRNTFAKLEK [S16R]", "class": "Satisfied"}
{"biosequence": "RSEFTLMAVRIGKDLSNTFAKLEK [K9V]", "class": "Not satisfied"}
{"biosequence": "RSEFTLMAARIGKDLSNTFAKLEK [K9A]", "class": "Not satisfied"}
{"biosequence": "QSEFTLMAKRIGKDLSNTFAKLEK [R1Q]", "class": "Not satisfied"}
{"biosequence": "RSEFTLMNKRIGKDLSNTFAKLEK [A8N]", "class": "Satisfied"}
{"biosequence": "RSEFTLMAKRIGKDLWNTFAKLEK [S16W]", "class": "Not satisfied"}
{"biosequence": "RSEFTLMAKRIGKDSSNTFAKLEK [L15S]", "class": "Not satisfied"}
{"biosequence": "RSEFTLMAKPIGKDLSNTFAKLEK [R10P]", "class": "Satisfied"}
{"biosequence": "RSEFTLMAKRIGKDLSNTFAKLKK [E23K]", "class": "Satisfied"}
{"biosequence": "YSEFTLMAKRIGKDLSNTFAKLEK [R1Y]", "class": "Satisfied"}
{"biosequence": "RSEFTLMAKRVGKDLSNTFAKLEK [I11V]", "class": "Not satisfied"}
{"biosequence": "RSEFTLMAKRIGKDVSNTFAKLEK [L15V]", "class": "Not satisfied"}
{"biosequence": "RSRFTLMAKRIGKDLSNTFAKLEK [E3R]", "class": "Satisfied"}
{"biosequence": "RSEFTLMAKRIGKDGSNTFAKLEK [L15G]", "class": "Satisfied"}
{"biosequence": "RSEFTLMAKDIGKDLSNTFAKLEK [R10D]", "class": "Satisfied"}
{"biosequence": "RSEFTLMAFRIGKDLSNTFAKLEK [K9F]", "class": "Not satisfied"}
{"biosequence": "RPEFTLMAKRIGKDLSNTFAKLEK [S2P]", "class": "Not satisfied"}
{"biosequence": "RSLFTLMAKRIGKDLSNTFAKLEK [E3L]", "class": "Satisfied"}
{"biosequence": "RSEFTLMAKRIGKDLSNTFAKLEE [K24E]", "class": "Not satisfied"}
{"biosequence": "RWEFTLMAKRIGKDLSNTFAKLEK [S2W]", "class": "Not satisfied"}
{"biosequence": "RSEFTLMAKRIGKDLSNQFAKLEK [T18Q]", "class": "Not satisfied"}
{"biosequence": "RSEFTLMAKRIGKDLSNTFAKDEK [L22D]", "class": "Satisfied"}
{"biosequence": "RSEFCLMAKRIGKDLSNTFAKLEK [T5C]", "class": "Not satisfied"}
{"biosequence": "RSEFTLMAKRIGKDLSDTFAKLEK [N17D]", "class": "Not satisfied"}
{"biosequence": "RSEFTLMAKRIGDDLSNTFAKLEK [K13D]", "class": "Satisfied"}
{"biosequence": "RSEFTLMAKRIGKDLSNTFAKLEQ [K24Q]", "class": "Not satisfied"}
{"biosequence": "RSEFTLMAKRIGKDLSNTFAKREK [L22R]", "class": "Not satisfied"}
{"biosequence": "RSEFTLMCKRIGKDLSNTFAKLEK [A8C]", "class": "Not satisfied"}
{"biosequence": "RSEFTLMAKRIGKDLSNTFAKLIK [E23I]", "class": "Not satisfied"}
{"biosequence": "RSEFTLMAKRIGKDLSNTFAKEEK [L22E]", "class": "Satisfied"}
{"biosequence": "RSEFTLMAKRIGKDLSNTVAKLEK [F19V]", "class": "Not satisfied"}
{"biosequence": "RSEFTLMAKRIGKDLSNRFAKLEK [T18R]", "class": "Not satisfied"}
{"biosequence": "RSEFTLMAKRIGKDLSNTFARLEK [K21R]", "class": "Not satisfied"}
{"biosequence": "RSEFTLMWKRIGKDLSNTFAKLEK [A8W]", "class": "Not satisfied"}
{"biosequence": "RSKFTLMAKRIGKDLSNTFAKLEK [E3K]", "class": "Not satisfied"}
{"biosequence": "RSEFTLMAKRIGKDLSNPFAKLEK [T18P]", "class": "Not satisfied"}
{"biosequence": "RSEFTLMAKRIGKDLSNFFAKLEK [T18F]", "class": "Satisfied"}
{"biosequence": "RSEFTLMAKRIHKDLSNTFAKLEK [G12H]", "class": "Not satisfied"}
